- assay_overview: Toxicity in rat (LD50)
- test_context: in vivo, po, per os
measured_endpoint: LD50

Can you share its LD50? I mean this compound: Cc1c(C)c2c(c(C)c1OP(=O)(O)OC1=C(O)[C@@H]([C@@H](O)CO)OC1=O)CCC(C)(CCCC(C)CCCC(C)CCCC(C)C)O2 (mixture of isomers) [α-EPC]
> 10000 mg/kg
